Data provenance is ChEMBL document CHEMBL3259517.

- TARGET_OF_ASSAY: Cyclin-dependent kinase 4/cyclin D1 (Homo sapiens) (UniProt P11802+P24385)
- TEST: Inhibition of CDK4/CycD1 (unknown origin) using FAM labeled peptide as substrate at 10 uM by IMAP FAM FP assay
- Type: protein-complex assay
MEASURED_PARAMETER: inhibition (%)
Only the number, expressed in %, is required.

- MOLECULE: "COc1ccccc1-c1cc(Nc2cccc(P(=O)(O)O)c2)ncn1"
  UNIT_SYMBOL: "%"
  RECORDED_MEASUREMENT: 40
- MOLECULE: "CN1CC[C@H](c2c(O)cc(O)c3c(=O)cc(-c4ccccc4Cl)oc23)[C@H](O)C1"
  UNIT_SYMBOL: "%"
  RECORDED_MEASUREMENT: 84
- MOLECULE: "CCOP(=O)(Oc1cc(Nc2cc(-c3ccccc3OC)ncn2)ccc1C)c1ccccc1 (stereo not given)"
  UNIT_SYMBOL: "%"
  RECORDED_MEASUREMENT: 19
- MOLECULE: "Nc1cccc(-c2cc(Nc3ccc(P(=O)(O)O)cc3)ncn2)c1"
  UNIT_SYMBOL: "%"
  RECORDED_MEASUREMENT: 67

From here, focus on the item given below.
Identify measured inhibition corresponding to CCOP(=O)(Nc1cc(Nc2cc(-c3ccccc3OC)ncn2)ccc1C)c1ccccc1 (stereo not given)
18

----------
- TARGET_OF_ASSAY: CDK9/cyclin T1 (Homo sapiens)
- TEST: Inhibition of CDK9/CycT1 (unknown origin) using TAMRA-Rbtide and ATP as substrate after 1 hr
- Type: protein-complex assay
Mark Yes only when IC50 stays strictly below 5000 nM. Values equal to the cut-off are No.

Example entries and their recorded answers appear below.
- COMPOUND: "CCOP(=O)(Oc1cccc(Nc2cc(-c3cccc(N)c3)ncn2)c1)c1ccccc1 (stereo not given)"
  TARGET_OF_ASSAY: "CDK9/cyclin T1 (Homo sapiens)"
  CATEGORY_LABEL: "No"
- COMPOUND: "CCCP(=O)(Cc1cccc(Nc2cc(-c3cccc(OC)c3)ncn2)c1)OCC (stereo not given)"
  TARGET_OF_ASSAY: "CDK9/cyclin T1 (Homo sapiens)"
  CATEGORY_LABEL: "No"
- COMPOUND: "CCOP(=O)(Oc1ccc(Nc2cc(-c3ccccc3OC)ncn2)cc1)c1ccccc1 (stereo not given)"
  TARGET_OF_ASSAY: "CDK9/cyclin T1 (Homo sapiens)"
  CATEGORY_LABEL: "Yes"
- COMPOUND: "CCOP(=O)(Cc1cccc(Nc2cc(-c3cccc(N)c3)ncn2)c1)c1ccccc1 (stereo not given)"
  TARGET_OF_ASSAY: "CDK9/cyclin T1 (Homo sapiens)"
  CATEGORY_LABEL: "Yes"

Now take the following compound into account.
Does CCP(=O)(O)Cc1cccc(Nc2cc(-c3ccccc3OCc3ccccc3)ncn2)c1 have IC50 strictly under 5000 nM?
Yes

----------
- TARGET_OF_ASSAY: CDK9/cyclin T1 (Homo sapiens, UniProt P50750)
- Sequence (O60563 whole entry): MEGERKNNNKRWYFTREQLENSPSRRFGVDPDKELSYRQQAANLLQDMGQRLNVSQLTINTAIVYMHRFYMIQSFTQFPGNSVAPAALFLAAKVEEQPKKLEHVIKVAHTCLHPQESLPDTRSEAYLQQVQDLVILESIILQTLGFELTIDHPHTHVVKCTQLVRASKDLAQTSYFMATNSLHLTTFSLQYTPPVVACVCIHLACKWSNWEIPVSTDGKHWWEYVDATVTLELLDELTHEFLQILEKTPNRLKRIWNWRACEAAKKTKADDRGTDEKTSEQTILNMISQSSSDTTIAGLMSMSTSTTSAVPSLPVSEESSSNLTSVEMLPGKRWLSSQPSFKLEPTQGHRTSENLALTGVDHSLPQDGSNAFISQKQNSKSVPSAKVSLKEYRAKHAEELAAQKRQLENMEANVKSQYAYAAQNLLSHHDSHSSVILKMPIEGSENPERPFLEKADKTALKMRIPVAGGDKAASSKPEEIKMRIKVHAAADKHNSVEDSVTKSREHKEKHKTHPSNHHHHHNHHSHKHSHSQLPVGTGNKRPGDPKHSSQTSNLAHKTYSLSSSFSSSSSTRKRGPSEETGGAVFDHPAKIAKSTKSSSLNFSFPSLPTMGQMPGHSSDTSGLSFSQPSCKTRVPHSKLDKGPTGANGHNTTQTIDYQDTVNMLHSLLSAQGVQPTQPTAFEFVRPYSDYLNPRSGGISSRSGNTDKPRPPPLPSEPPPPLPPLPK
- Sequence (P50750 whole entry): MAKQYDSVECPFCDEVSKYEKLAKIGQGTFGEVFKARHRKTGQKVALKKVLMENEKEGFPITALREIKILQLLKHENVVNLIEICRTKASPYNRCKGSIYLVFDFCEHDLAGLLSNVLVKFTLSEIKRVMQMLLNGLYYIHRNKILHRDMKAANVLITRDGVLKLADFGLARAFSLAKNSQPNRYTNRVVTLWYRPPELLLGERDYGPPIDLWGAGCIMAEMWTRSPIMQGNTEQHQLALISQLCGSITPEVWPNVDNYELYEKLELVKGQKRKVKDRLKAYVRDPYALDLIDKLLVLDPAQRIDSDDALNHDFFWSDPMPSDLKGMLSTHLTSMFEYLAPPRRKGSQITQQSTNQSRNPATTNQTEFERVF
- TEST: Inhibition of CDK9/CycT1 (unknown origin) using TAMRA-Rbtide and ATP as substrate after 1 hr
- Type: protein-complex assay
MEASURED_PARAMETER: pIC50
Quick note: pIC50 values are minus log10 of concentrations in mol/L.

Known pIC50 results, listed for orientation:
- COMPOUND: "CCCP(=O)(Cc1cccc(Nc2cc(-c3ccccc3OC(C)C)ncn2)c1)OCC (configuration not stated)"
  TARGET_OF_ASSAY: "CDK9/cyclin T1 (Homo sapiens, UniProt P50750)"
  pIC50: 6.68
- COMPOUND: "CCCP(=O)(Cc1cccc(Nc2cc(-c3ccc(OC)cc3)ncn2)c1)OCC (configuration not stated)"
  TARGET_OF_ASSAY: "CDK9/cyclin T1 (Homo sapiens, UniProt P50750)"
  pIC50: 5.27
- COMPOUND: "CCOP(=O)(Cc1ccc(Nc2cc(-c3cccc(N)c3)ncn2)cc1)OCC"
  TARGET_OF_ASSAY: "CDK9/cyclin T1 (Homo sapiens, UniProt P50750)"
  pIC50: 5.51

Output pIC50 of CCOP(=O)(Cc1cccc(Nc2cc(-c3cccc([N+](=O)[O-])c3)ncn2)c1)OCC
5.01

Quick one: give measured pIC50 for O=[N+]([O-])c1cccc(-c2cc(Nc3ccc(CP(=O)(O)O)cc3)ncn2)c1
5.68

# return recorded pIC50 for input CCOP(=O)(CC)Cc1cc(Nc2cc(-c3cccc(N)c3)ncn2)ccc1C (configuration not stated)
6.46
